- Tested on: c-Src
- protocol notes: phosphorylation enrichment, bacterial display (enrichment ratio); higher = better substrate or ligand; peptides without Tyr show the background
Decision: phosphorylation enrichment >= 0.6 yields Yes, all other cases yield No.

construct sequence: ISDNAYQYMLT [MYH7_Y162]
assigned class: Yes
--
construct sequence: KKHIPYRQHKS [CSNK1G2_Y206_E208Q]
assigned class: Yes
--
construct sequence: LGLDEYLDKLK [FMNL2_Y352]
assigned class: No
--
construct sequence: LTGIAYGLPHW [SLC22A14_Y291_S292G]
assigned class: No
--
construct sequence: WQQQSYLDSGS [CTNNB1_Y30_I35S]
assigned class: No
--
construct sequence: WVFNHYRWFIW [BRCA2_Y2624_I2627F_YF]
assigned class: No
--
construct sequence: NGTVTYAIVAG [CDH23_Y1672]
assigned class: Yes
--
construct sequence: DSNPIYSQIWS [FCRL3_Y662]
assigned class: Yes
--
construct sequence: VEDPEYAVTQL [STOML2_Y124]
assigned class: No
--
construct sequence: GNLLIYTDFGK [HGD_Y166_E168D]
assigned class: Yes
--
construct sequence: RLLVVYPWTER [HBB_Y36_Q40E]
assigned class: No
--
construct sequence: AKKVFYMIETR [SHH_Y253_V254M]
assigned class: No
--
construct sequence: VGIMLYGVDSR [PKD1_Y3143]
assigned class: No
--
construct sequence: SLNAVYPRAGR [OAS3_Y376_S381R]
assigned class: No
--
construct sequence: FKDGQYWIRGR [ACSF3_Y466]
assigned class: No
--
construct sequence: ASELGYVFQAI [UROD_Y133]
assigned class: No
--
construct sequence: YLRTGYSIPYG [TGM1_Y370_V372I]
assigned class: No
--
construct sequence: QRMGTYGVRAA [ICAM2_Y260]
assigned class: Yes
--
construct sequence: FSPGSYERETF [NF1_Y2192]
assigned class: No

###

Item-by-item account of phosphorylation enrichment
- measured target: Fyn (UniProt P06241)
- Sequence (P06241 whole entry, looked up): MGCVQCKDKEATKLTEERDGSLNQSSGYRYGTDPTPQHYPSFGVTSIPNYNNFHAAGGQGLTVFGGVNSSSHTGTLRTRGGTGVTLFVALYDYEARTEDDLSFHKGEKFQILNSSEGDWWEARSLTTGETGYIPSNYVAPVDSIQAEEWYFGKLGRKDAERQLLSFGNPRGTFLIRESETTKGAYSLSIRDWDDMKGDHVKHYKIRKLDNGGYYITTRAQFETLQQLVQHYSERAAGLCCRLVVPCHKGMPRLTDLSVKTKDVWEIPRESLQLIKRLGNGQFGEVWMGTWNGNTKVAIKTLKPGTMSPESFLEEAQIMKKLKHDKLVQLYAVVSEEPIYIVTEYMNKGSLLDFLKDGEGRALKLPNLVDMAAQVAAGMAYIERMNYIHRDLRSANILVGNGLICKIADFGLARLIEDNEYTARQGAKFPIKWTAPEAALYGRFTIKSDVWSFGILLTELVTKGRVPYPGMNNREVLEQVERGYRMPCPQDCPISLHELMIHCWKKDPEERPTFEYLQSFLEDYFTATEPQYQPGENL
- protocol notes: phosphorylation enrichment, bacterial display (enrichment ratio); higher = better substrate or ligand; peptides without Tyr show the background

construct sequence: FTNRSYDLDYD [MYC_Y12_N11S]
phosphorylation enrichment: 0.565
//
construct sequence: IENPQYFSDAC [NTRK1_Y496]
phosphorylation enrichment: 0.516
//
construct sequence: HFPDVYAWEQL [ALX3_Y181_R183W_YF]
phosphorylation enrichment: 7.03
//
construct sequence: LDAFIYDAALL [GRIN2A_Y730_V734L]
phosphorylation enrichment: 8.97
//
construct sequence: EPFKVYRIVPE [IRF8_Y110_YF]
phosphorylation enrichment: 0.462
//
construct sequence: LNTFHHAGVSA [POLR2A_Y1109_Y1109H]
phosphorylation enrichment: 0.356
//
construct sequence: HHTNEYEFDEL [TGM1_Y134_D132N_YF]
phosphorylation enrichment: 1.13
//
construct sequence: FAKTQYPDVYA [CRX_Y63]
phosphorylation enrichment: 0.469
//
construct sequence: YLRTGYSIPYG [TGM1_Y370_V372I]
phosphorylation enrichment: 0.375
//
construct sequence: LTFPDYLPCSV [SAG_Y129]
phosphorylation enrichment: 0.427
//
construct sequence: KHGGNYVPAPK [OSCP1_Y237]
phosphorylation enrichment: 0.359
//
construct sequence: QKFMAYPSQGG [HLCS_Y236_L237P]
phosphorylation enrichment: 0.388

###

Item-by-item account of SH2 binding enrichment
- measured target: c-Src SH2
- protocol notes: SH2 binding enrichment of the phosphorylated peptide, bacterial display (enrichment ratio); higher = better substrate or ligand; peptides without Tyr show the background

construct sequence: RLLRGYDQYAY [HLA-B_Y137_H137Y]
measured target: c-Src SH2
SH2 binding enrichment: 2.15
//
construct sequence: SHMVNYQPFRK [TEX37_Y25_D24N_YF]
measured target: c-Src SH2
SH2 binding enrichment: 0.613
//
construct sequence: TYGNLYGSRKQ [YIPF7_Y59_A54T]
measured target: c-Src SH2
SH2 binding enrichment: 0.632
//
construct sequence: NPQKSYFICLY [WAS_Y83_R86C]
measured target: c-Src SH2
SH2 binding enrichment: 0.412
//
construct sequence: VPEANYTSDEE [STK33_Y439_D436E]
measured target: c-Src SH2
SH2 binding enrichment: 0.46
//
construct sequence: SQSAKYDMAED [TTC21B_Y1213_I1208S]
measured target: c-Src SH2
SH2 binding enrichment: 1.22
//
construct sequence: SVTGTYSPALN [TP53_Y126_C124G]
measured target: c-Src SH2
SH2 binding enrichment: 0.415
//
construct sequence: KIIATYRLCSE [DNAH3_Y1586_V1583I]
measured target: c-Src SH2
SH2 binding enrichment: 0.574
//
construct sequence: KVMANYVFKAG [MAML2_Y513_M514V_YF]
measured target: c-Src SH2
SH2 binding enrichment: 0.614
//
construct sequence: FIAVGYVDDTQ [HLA-A_Y51]
measured target: c-Src SH2
SH2 binding enrichment: 0.625
//
construct sequence: THPFLYLTLEI [MLH1_Y293_S295T]
measured target: c-Src SH2
SH2 binding enrichment: 0.623
//
construct sequence: MSRDVYSTDYY [NTRK2_Y702]
measured target: c-Src SH2
SH2 binding enrichment: 0.715
//
construct sequence: VLALWYYYLTH [ZDHHC23_Y127]
measured target: c-Src SH2
SH2 binding enrichment: 1.5
//
construct sequence: HILQLYRCREE [ALPK3_Y342_T338I]
measured target: c-Src SH2
SH2 binding enrichment: 0.546
//
construct sequence: QDIMAYRSREV [BCL6_Y157_G159S]
measured target: c-Src SH2
SH2 binding enrichment: 0.42
//
construct sequence: GRLPEYNTRIA [CCDC151_Y542]
measured target: c-Src SH2
SH2 binding enrichment: 0.482
//
construct sequence: TTKVSYRASQP [MKI67_Y1737]
measured target: c-Src SH2
SH2 binding enrichment: 0.533
//
construct sequence: ILGRYYETGSI [PAX2_Y73]
measured target: c-Src SH2
SH2 binding enrichment: 1.8
//
construct sequence: GGSTYYIDTNA [ACTL6A_Y69_P66S]
measured target: c-Src SH2
SH2 binding enrichment: 0.731
//
construct sequence: HVIKLFGACSQ [RET_Y791_Y791F]
measured target: c-Src SH2
SH2 binding enrichment: 0.667
//
construct sequence: FAKTQYPDVFA [CRX_Y63_YF]
measured target: c-Src SH2
SH2 binding enrichment: 0.486
//
construct sequence: VEQIHYIGQNE [HMOX2_Y140_R137Q]
measured target: c-Src SH2
SH2 binding enrichment: 0.465
//
construct sequence: CTTIHDNYMCN [TP53_Y234_Y234D]
measured target: c-Src SH2
SH2 binding enrichment: 0.922
//
construct sequence: EKIANYKEGTY [CLRN1_Y171]
measured target: c-Src SH2
SH2 binding enrichment: 0.433
//
construct sequence: SGPRRYNIAAL [TTR_Y125_T126N]
measured target: c-Src SH2
SH2 binding enrichment: 0.419
//
construct sequence: ATGGFYSYGGG [KRT24_Y120]
measured target: c-Src SH2
SH2 binding enrichment: 0.858
//
construct sequence: FHKALYTVRTY [PDE6C_Y266_S270T]
measured target: c-Src SH2
SH2 binding enrichment: 0.481
//
construct sequence: DSLASYLDKVR [KRT10_Y160_R156S]
measured target: c-Src SH2
SH2 binding enrichment: 0.579
//
construct sequence: IQTDGDRAPEA [UHMK1_Y197_Y197D]
measured target: c-Src SH2
SH2 binding enrichment: 0.427
//
construct sequence: PPSGEYFGQCG [TRIP6_Y275]
measured target: c-Src SH2
SH2 binding enrichment: 0.791
//
construct sequence: RYVTRYIYNRE [HLA-DQB1_Y62]
measured target: c-Src SH2
SH2 binding enrichment: 0.367
//
construct sequence: NDTAGYFVIGG [SEL1L3_Y399_I401V]
measured target: c-Src SH2
SH2 binding enrichment: 7.22
//
construct sequence: SRWKLYPRMLR [HAO1_Y50]
measured target: c-Src SH2
SH2 binding enrichment: 0.392
//
construct sequence: KTSGNYLPVTG [WDR19_Y28_A30P]
measured target: c-Src SH2
SH2 binding enrichment: 0.493
//
construct sequence: YTGSTYRVGDT [FN1_Y106_N104S]
measured target: c-Src SH2
SH2 binding enrichment: 0.538
//
construct sequence: TVLEPYADPYY [ZC3H18_Y367]
measured target: c-Src SH2
SH2 binding enrichment: 1.29
//
construct sequence: HYECKYVINAI [MAOA_Y268]
measured target: c-Src SH2
SH2 binding enrichment: 0.59
//
construct sequence: DFTEAYNSKIK [CLK1_Y305_P307S_YF]
measured target: c-Src SH2
SH2 binding enrichment: 0.45
//
construct sequence: YGSSSSGGAGG [RPA2_Y14_Y14S]
measured target: c-Src SH2
SH2 binding enrichment: 0.395
//
construct sequence: VMIYAYLLHRG [PTEN_Y138_C136Y]
measured target: c-Src SH2
SH2 binding enrichment: 0.806
//
construct sequence: QQLVAYFSKHT [SRC_Y232_A237T_YF]
measured target: c-Src SH2
SH2 binding enrichment: 0.808
//
construct sequence: KYVKMCDNHQL [MYO9A_Y203_Y203C]
measured target: c-Src SH2
SH2 binding enrichment: 0.75
//
construct sequence: TRDVNYGWVIR [MT-CYB_Y75_I78V]
measured target: c-Src SH2
SH2 binding enrichment: 0.654
//
construct sequence: QKFMAYPSQGG [HLCS_Y236_L237P]
measured target: c-Src SH2
SH2 binding enrichment: 0.477
//
construct sequence: RPSELYYSKIS [SMG1_Y2253_G2258S]
measured target: c-Src SH2
SH2 binding enrichment: 5.74
//
construct sequence: PDNKPYIFKVF [PIK3AP1_Y553_E551K]
measured target: c-Src SH2
SH2 binding enrichment: 0.568
//
construct sequence: SPPILYSFYLN [FCRL6_Y239_D244N]
measured target: c-Src SH2
SH2 binding enrichment: 0.824
//
construct sequence: LKALKYKSMKI [ITGA11_Y1098]
measured target: c-Src SH2;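 further: peptide library displayed on the E. coli surface as eCPX fusions, selected cells deep-sequenced, score is each peptide's frequency after selection divided by its frequency in the input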
SH2 binding enrichment: 0.783
